- test_system: BACE 1 (beta secretase enzyme) (Homo sapiens (Human))
- Sequence (P56817 46-501): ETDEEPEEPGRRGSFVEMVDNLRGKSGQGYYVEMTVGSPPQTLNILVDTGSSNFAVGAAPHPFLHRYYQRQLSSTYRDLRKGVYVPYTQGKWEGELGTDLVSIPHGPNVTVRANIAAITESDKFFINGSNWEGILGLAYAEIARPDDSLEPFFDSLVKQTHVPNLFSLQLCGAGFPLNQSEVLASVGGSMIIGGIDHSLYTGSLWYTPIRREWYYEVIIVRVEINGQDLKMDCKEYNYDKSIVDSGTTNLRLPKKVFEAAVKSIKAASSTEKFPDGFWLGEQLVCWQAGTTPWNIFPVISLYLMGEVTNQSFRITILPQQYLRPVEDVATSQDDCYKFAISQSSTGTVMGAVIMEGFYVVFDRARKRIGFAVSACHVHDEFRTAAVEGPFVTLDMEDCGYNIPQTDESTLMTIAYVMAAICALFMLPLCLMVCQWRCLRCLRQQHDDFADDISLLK
Each entry falls into one class according to its IC50; the ranges are lower range = under 3 nM, middle range = from 3 nM up to 9 nM, upper range = 9 nM and over

State the band of NC1=N[C@@]2(CCO1)c1cc(NC(=O)c3ccc(Cl)cn3)ccc1Oc1cnc(-c3ccnc(F)c3)cc12 [Example 94] lower range

State the band of NC1=N[C@@]2(CCO1)c1cc(NC(=O)c3ccc(Cl)cn3)ccc1Oc1c2cc(-c2cncc(F)c2)nc1F [Example 71] lower range

State the band of NC1=N[C@@]2(CCO1)c1cc(NC(=O)c3ccc(Cl)cn3)ccc1Oc1cnc(Cl)cc12 [Example 79] upper range

State the band of COc1cc(F)c2c(c1)[C@]1(CCOC(N)=N1)c1cc(Nc3ncccc3OCc3ccccc3)ccc1O2 [Example 57] upper range

State the band of COc1cnc(C(=O)Nc2ccc3c(c2)[C@@]2(CCSC(N)=N2)c2cc(-c4cncc(F)c4)nc(F)c2O3)cn1 [Example 112] lower range

State the band of Cc1cc(Cl)cnc1C(=O)Nc1ccc2c(c1)[C@@]1(CCSC(N)=N1)c1cc(C3=CCOCC3)nc(F)c1O2 [Example 122] lower range

State the band of COc1cnc(C(=O)Nc2ccc3c(c2)[C@@]2(CCOC(N)=N2)c2cc(C4=CCCOC4)ncc2O3)cn1 [Example 58] upper range

State the band of COc1cc(F)c2c(c1)[C@]1(CCSC(N)=N1)c1cc(NC(=O)c3cnc(OC)cn3)ccc1O2 [Example 50] upper range

State the band of COc1cnc(C(=O)Nc2ccc3c(c2)[C@@]2(CCSC(N)=N2)c2cc(C4=CCOCC4)nc(F)c2O3)c(C)c1 [Example 121] middle range

State the band of N#Cc1ccc(C(=O)Nc2ccc3c(c2)[C@@]2(CCOC(N)=N2)c2cc(-c4ccnc(F)c4)nc(F)c2O3)nc1 [Example 100] lower range

State the band of NC1=N[C@@]2(CCS1)c1cc(NC(=O)c3ncc(Cl)cc3F)ccc1Oc1c2cc(C2=CCOCC2)nc1F [Example 119] lower range

State the band of COc1cnc(C(=O)Nc2ccc3c(c2)[C@@]2(CCOC(N)=N2)c2cc(C4CC4)ncc2O3)cn1 [Example 80] middle range

State the band of COc1cc(F)c2c(c1)[C@]1(CCOC(N)=N1)c1cc(NC(=O)c3ccc(C#N)cn3)ccc1O2 [Example 74] upper range

State the band of COc1cnc(C(=O)Nc2ccc3c(c2)[C@@]2(CCOC(N)=N2)c2cc(-c4ccnc(F)c4)nc(F)c2O3)cn1 [Example 92] lower range

State the band of COc1cnc(C(=O)Nc2ccc3c(c2)[C@@]2(CCOC(N)=N2)c2cc(-c4ccnc(F)c4)ncc2O3)cn1 [Example 93] lower range

State the band of COc1cnc(C(=O)Nc2ccc3c(c2)[C@@]2(CCSC(N)=N2)c2cc(C4=CCCOC4)ncc2O3)cn1 [Example 104] middle range

* * *

Measured IC50 (UniProt P07339)
Sequence (P07339 65-412, species assumed): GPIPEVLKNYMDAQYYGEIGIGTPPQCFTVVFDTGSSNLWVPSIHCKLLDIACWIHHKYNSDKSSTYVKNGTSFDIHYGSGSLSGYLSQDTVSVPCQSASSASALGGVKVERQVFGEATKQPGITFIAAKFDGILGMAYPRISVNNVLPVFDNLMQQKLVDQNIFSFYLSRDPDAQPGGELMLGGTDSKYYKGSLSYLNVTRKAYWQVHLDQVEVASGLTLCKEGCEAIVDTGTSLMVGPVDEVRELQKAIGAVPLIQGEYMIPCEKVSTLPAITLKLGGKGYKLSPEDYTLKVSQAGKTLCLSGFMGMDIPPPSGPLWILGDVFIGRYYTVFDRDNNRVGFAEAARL
Please state the figure in µM; there is no need to write the unit.

Below, each entry is followed by its recorded IC50 result.
INSERT INTO results (molecule, reported_value) VALUES
  ('NC1=N[C@@]2(CCO1)c1cc(NC(=O)c3ccc(Cl)cn3)ccc1Oc1c2cc(-c2cncc(F)c2)nc1F [Example 71]', 400),
  ('NC1=N[C@@]2(CCO1)c1cc(NC(=O)c3ccc(F)cn3)ccc1Oc1c2cc(-c2cncc(F)c2)nc1F [Example 89]', 400),
  ('NC1=N[C@@]2(CCS1)c1cc(NC(=O)c3ccc(Cl)cn3)ccc1Oc1c2cc(C2=CCCOC2)nc1F [Example 68]', 217),
  ('COc1ccc(C(=O)Nc2ccc3c(c2)[C@@]2(CCSC(N)=N2)c2cc(C4=CCCOC4)nc(F)c2O3)nc1 [Example 111]', 569),
  ('COc1cnc(C(=O)Nc2ccc3c(c2)[C@@]2(CCSC(N)=N2)c2cc(C4=CCCOC4)ncc2O3)cn1 [Example 104]', 295);

Then this molecule:
Tested on UniProt P07339, the item NC1=N[C@@]2(CCS1)c1cc(NC(=O)c3ccc(Cl)cn3)ccc1Oc1c2cc(C2=CCOCC2)nc1F [Example 117] showed IC50 equal to 133
